# Test system: MDA-MB-435
# assay: Cytotoxicity against human MDA-MB-435 cells assessed as inhibition of cell proliferation measured after 68 hrs by MTT assay
# Assay type: functional, cell-based
# test parameters: MDA-MB-435, 68 h
experimental readout: IC50 (nM)
Please state the figure in nM; there is no need to write the unit.

INPUT: Please indicate recorded IC50 of C/C=C(\C)[C@@H](O[C@@H]1O[C@H](CO)[C@@H](O)[C@H](O)[C@H]1O)[C@@H](C)/C=C(C)/C=C/C[C@H](C)/C=C/c1oc(OC)c(C)c(=O)c1C (stereo in doubt) measured with MDA-MB-435.
OUTPUT: 260

INPUT: Please indicate recorded IC50 of COc1cccc2c1C(=O)c1c(O)c3c(c(O)c1C2=O)C[C@@](O)(C(=O)CO)C[C@@H]3O[C@H]1C[C@H](N)[C@@H](O)[C@H](C)O1 [EPIRUBICIN] measured with MDA-MB-435.
OUTPUT: 230

----------
# Test system: A549
# assay: Cytotoxicity against human A549 cells assessed as inhibition of cell proliferation measured after 68 hrs by MTT assay
# Format: functional, cell-based
# test parameters: A549, 68 h
Can you tell me pIC50 for the items I'm about to list?
Schema: pIC50 number; meaning minus log10 of the concentration expressed in molar units.

INPUT: Note pIC50 for the compound shown: COc1cccc2c1C(=O)c1c(O)c3c(c(O)c1C2=O)C[C@@](O)(C(=O)CO)C[C@@H]3O[C@H]1C[C@H](N)[C@@H](O)[C@H](C)O1 [EPIRUBICIN]
OUTPUT: 5.88

INPUT: Note pIC50 for the compound shown: C/C=C(\C)[C@@H](O[C@@H]1O[C@H](CO)[C@@H](O)[C@H](O)[C@H]1O)[C@@H](C)/C=C(C)/C=C/C[C@H](C)/C=C/c1oc(OC)c(C)c(=O)c1C (stereo in doubt)
OUTPUT: 6.12

----------
# System: MDA-MB-231
# assay: Cytotoxicity against human MDA-MB-231 cells assessed as inhibition of cell proliferation measured after 68 hrs by MTT assay
# Type: functional, cell-based
# test parameters: MDA-MB-231, 68 h
Can you tell me IC50 for the items I'm about to list?
Please state the figure in nM; there is no need to write the unit.

INPUT: Note IC50 for the compound shown: C/C=C(\C)[C@@H](O[C@@H]1O[C@H](CO)[C@@H](O)[C@H](O)[C@H]1O)[C@@H](C)/C=C(C)/C=C/C[C@H](C)/C=C/c1oc(OC)c(C)c(=O)c1C (stereo in doubt)
OUTPUT: 1000

INPUT: Note IC50 for the compound shown: COc1cccc2c1C(=O)c1c(O)c3c(c(O)c1C2=O)C[C@@](O)(C(=O)CO)C[C@@H]3O[C@H]1C[C@H](N)[C@@H](O)[C@H](C)O1 [EPIRUBICIN]
OUTPUT: 1200

----------
# Tested on: MDA-MB-435
# assay: Cytotoxicity against human MDA-MB-435 cells assessed as inhibition of cell proliferation measured after 68 hrs by MTT assay
# Format: functional, cell-based
# test parameters: MDA-MB-435, 68 h
Can you tell me IC50 for the items I'm about to list?

INPUT: Please indicate recorded IC50 of C/C=C(\C)[C@@H](O)[C@@H](C)/C=C(C)/C=C/C[C@H](C)/C=C/C(=O)CC measured with MDA-MB-435.
OUTPUT: > 50 µM

INPUT: Please indicate recorded IC50 of C/C=C(\C)[C@@H](O)[C@@H](C)/C=C(C)/C=C/C[C@H](C)/C=C/c1oc(=O)c(C)c(O)c1C measured with MDA-MB-435.
OUTPUT: > 50 µM

INPUT: Please indicate recorded IC50 of C/C=C(\C)[C@@H](O)[C@@H](C)/C=C(C)/C=C/C[C@H](C)/C=C/c1oc(OC)c(C)c(=O)c1C measured with MDA-MB-435.
OUTPUT: > 50 µM
